Molecular target: hGPR17L-D105N-Tango (Homo sapiens, UniProt Q13304, D105N)
Construct: Tango fusion module
Sequence (Q13304 whole entry D105N, the tested form may be a part): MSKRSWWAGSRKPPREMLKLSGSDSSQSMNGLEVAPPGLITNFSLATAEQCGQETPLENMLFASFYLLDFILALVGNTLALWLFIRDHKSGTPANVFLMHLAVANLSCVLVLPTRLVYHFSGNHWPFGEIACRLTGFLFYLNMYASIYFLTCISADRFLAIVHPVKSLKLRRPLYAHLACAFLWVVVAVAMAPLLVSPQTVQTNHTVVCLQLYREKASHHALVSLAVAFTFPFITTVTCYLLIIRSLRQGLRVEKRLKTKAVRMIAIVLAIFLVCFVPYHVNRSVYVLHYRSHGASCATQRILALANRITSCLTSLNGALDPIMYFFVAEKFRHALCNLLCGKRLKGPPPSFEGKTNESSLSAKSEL
Assay: Tango β-arrestin recruitment assay
Conditions: read-out: β-arrestin recruitment EC50, HTLA cells
pEC50: −log10 of the molar value.

| compound | target-system | pEC50 |
| --- | --- | --- |
| O=C(O)CCc1c(C(=O)O)[nH]c2cc(Cl)cc(Cl)c12 [MDL29,951] | hGPR17L-D105N-Tango (Homo sapiens, UniProt Q13304, D105N) | 6.54 |

###

Target: hGPR17L-V103M (Homo sapiens, UniProt Q13304, V103M)
Construct: expressed in transfected cells; host or cells: HEK293 (ATCC CRL-1573), transient transfection
Sequence (Q13304 whole entry V103M): as the sequence (Q13304 whole entry D105N, the tested form may be a part) above, with V103M, N105D counted along it
Assay: GloSensor stimulatory cAMP assay with pertussis toxin pretreatment
Type: cell-based
Conditions: read-out: Stimulatory cAMP EC50
experimental-readout: EC50 (µM)

| structure-smiles-string | experimental-readout | display-unit | endpoint-value |
| --- | --- | --- | --- |
| O=C(O)CCc1c(C(=O)O)[nH]c2cc(Cl)cc(Cl)c12 | EC50 | µM | 47 |

###

Target: hGPR17L-V103M (Homo sapiens, UniProt Q13304, V103M)
Construct: expressed in transfected cells; host or cells: HEK293 (ATCC CRL-1573), transient transfection
Assay: Calcium flux assay
Type: cell-based
Conditions: read-out: Ca2+ EC50, HEK293, calcium mobilization

| structure-smiles-string | target-system | EC50 / nM |
| --- | --- | --- |
| O=C(O)CCc1c(C(=O)O)[nH]c2cc(Cl)cc(Cl)c12 | hGPR17L-V103M (Homo sapiens, UniProt Q13304, V103M) | 220 |

###

Biological target: hGPR17L-G354V (Homo sapiens, UniProt Q13304, G354V)
Construct: expressed in transfected cells; host or cells: HEK293 (ATCC CRL-1573)
Sequence (Q13304 whole entry G354V): as the sequence (Q13304 whole entry D105N, the tested form may be a part) above, with N105D, G354V counted along it
Assay: Calcium flux assay
Format: cell-based
Conditions: read-out: Ca2+ EC50, HEK293, calcium mobilization
Protocol: HEK293 cells were seeded at 20,000 cells/well into black, optical bottom, poly-D-lysine coated 96-well plates. The following day, cells were transiently transfected with pcDNA3-HA-hGPR17L or pcDNA3-HA-hGPR17L-variants using lipofectamine 3000. […] MDL29,951 diluted in assay buffer was added to the wells and fluorescence (485 nm excitation, 525 nm emission, and 515 nm automatic emission cutoff) was measured using a Molecular Devices FlexStation3 (Molecular Devices). […]

| structure-smiles-string | display-unit | EC50 |
| --- | --- | --- |
| O=C(O)CCc1c(C(=O)O)[nH]c2cc(Cl)cc(Cl)c12 | nM | 89 |

###

Molecular target: hGPR17L-R301H (Homo sapiens, UniProt Q13304, R301H)
Construct: expressed in transfected cells; host or cells: HEK293 (ATCC CRL-1573)
Sequence (Q13304 whole entry R301H): as the sequence (Q13304 whole entry D105N, the tested form may be a part) above, with N105D, R301H counted along it
Assay: Calcium flux assay
Format: cell-based
Conditions: read-out: Ca2+ EC50, HEK293, calcium mobilization

| structure-smiles-string | EC50 (µM) |
| --- | --- |
| O=C(O)CCc1c(C(=O)O)[nH]c2cc(Cl)cc(Cl)c12 | 0.18 |

###

Biological target: hGPR17L-F43L (Homo sapiens, UniProt Q13304, F43L)
Construct: expressed in transfected cells; host or cells: HEK293 (ATCC CRL-1573), transient transfection
Sequence (Q13304 whole entry F43L): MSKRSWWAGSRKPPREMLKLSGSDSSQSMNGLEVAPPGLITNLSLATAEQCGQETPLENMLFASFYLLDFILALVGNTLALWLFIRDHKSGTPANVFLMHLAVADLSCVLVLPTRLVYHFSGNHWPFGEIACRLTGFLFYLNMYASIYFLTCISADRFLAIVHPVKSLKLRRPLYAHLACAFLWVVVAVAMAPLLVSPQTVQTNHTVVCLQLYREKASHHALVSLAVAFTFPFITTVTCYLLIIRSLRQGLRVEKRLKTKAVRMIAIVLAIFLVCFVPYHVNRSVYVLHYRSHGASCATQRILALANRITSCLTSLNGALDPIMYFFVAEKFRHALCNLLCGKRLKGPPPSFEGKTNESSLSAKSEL
Experiment: Calcium flux assay
Format: cell-based
Conditions: read-out: Ca2+ EC50, HEK293, calcium mobilization
experimental-readout: EC50 (nM)

| compound | experimental-readout | display-unit | endpoint-value |
| --- | --- | --- | --- |
| O=C(O)CCc1c(C(=O)O)[nH]c2cc(Cl)cc(Cl)c12 [MDL29,951] | EC50 | nM | 57 |

Source of measurements: paper PMC8267566
